Each recorded value in this set is attributed to PubChem BioAssay.

test system: glycogen synthase kinase-3 (GSK3A per assay name; protocol says GSK3B); assay: GSK3 binders on small-molecule microarrays, primary screen, biochemical, small-molecule microarray, 635 nm fluorescence, GSK3A (AID 1103); details: small-molecule microarray binding, fluorescence 635 nm; higher = more signal; further: the record names both GSK3A and GSK3B
measuredQuantity: composite z-score
# print the numeric value only

Known results for compounds:
Inquiry: Given the entry CC(=O)NCCCC[C@@H]1NC(=O)[C@@H]2C[C@H](C(=O)NCCCCN(C)C)[C@H](c3ccc(O)cc3)N2C1=O , report its measured composite z-score.
Reply text: 0.0247

Inquiry: Given the entry O=C1N(CCS(=O)(=O)c2ccccc2)Cc2ccccc2C[C@]12N=C(c1ccc(OCCCO)cc1)O[C@@H]2c1ccccc1 , report its measured composite z-score.
Reply text: 1.3

Inquiry: Given the entry COc1ccccc1CN1C(=O)c2ccccc2[C@@H](C(=O)NCCN2CCOCC2)[C@@H]1c1ccc(CO)cc1 , report its measured composite z-score.
Reply text: 0.342

Inquiry: Given the entry O=C1O[C@@H](c2ccccc2)[C@@H](c2ccccc2)N2[C@@H](c3ccc(O)cc3)[C@]3(C(=O)Nc4ccc(C#CC5=CCCCC5)cc43)[C@@H](C(=O)O)[C@H]12 , report its measured composite z-score.
Reply text: 0.653

Inquiry: Given the entry COc1ccc([Si](C)(C)[C@H]2[C@H](CCn3cc(CCO)nn3)O[C@@]3(C(=O)N(Cc4ccc(N5CCOC5=O)cc4)c4ccccc43)[C@@H]2C)cc1 , report its measured composite z-score.
Reply text: 0.625

Inquiry: Given the entry CCOC(=O)C1=C[C@@H](C(C)C)N(S(=O)(=O)c2ccc(C)cc2)[C@H]1c1ccc(C(C)C)cc1 , report its measured composite z-score.
Reply text: 1.3

In the following, a different compound is considered.
Inquiry: Given the entry CCC(CC)C(O)C1C=CC2C(=O)N(c3ccccc3)C(=O)C2N1Nc1ccc(C#N)cc1 (configuration not stated) , report its measured composite z-score.
Reply text: 1.27
